Measured IC50, listed per entry.
# TARGET ENTITY: MTHFD2 recombinant human enzyme (Homo sapiens, UniProt P13995)
# Sequence (P13995 36-350): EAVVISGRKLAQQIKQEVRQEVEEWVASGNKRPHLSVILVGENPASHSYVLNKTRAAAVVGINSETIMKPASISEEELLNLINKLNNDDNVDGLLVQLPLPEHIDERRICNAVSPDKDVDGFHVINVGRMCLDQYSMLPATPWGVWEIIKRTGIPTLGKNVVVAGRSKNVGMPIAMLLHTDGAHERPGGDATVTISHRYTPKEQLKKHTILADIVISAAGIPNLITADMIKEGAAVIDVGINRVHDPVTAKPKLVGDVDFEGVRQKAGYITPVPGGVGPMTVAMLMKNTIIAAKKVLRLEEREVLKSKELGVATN
# METHOD DESCRIPTION: MTHFD2 inhibition assay (NAD(P)H-Glo luminescence)

Please review the following examples before continuing.
CCOc1c(C(=O)NS(=O)(=O)N(C)C)ccc(C(=O)N2CCc3c(c(=O)oc4c(C)c(N5CCN(C)[C@@H](COC)C5)cc(C)c34)C2)c1F: 1 to 10 nM
Cc1c(N2CCN(C)[C@@H](COC(C)C)C2)ccc2c3c(c(=O)oc12)CN(C(=O)c1ccc(C(=O)NS(=O)(=O)N2CCCC2)c(OC2CCC2)c1F)CC3: 100 to 1000 nM
COC[C@H]1CN(c2cc(C)c3c4c(c(=O)oc3c2C)CN(C(=O)c2ccc(C(=O)NS(=O)(=O)N3CCCC3)c(OC3C[C@@H]5C[C@@H]5C3)c2)CC4)CCN1C (mixture of isomers): 10 to 100 nM

Ask: What value of IC50 has been reported for the following compound? `COC[C@H]1CN(c2ccc3c4c(c(=O)oc3c2C)CN(C(=O)c2ccc(C(=O)NS(=O)(=O)N(C)C(C)C)c(OC3CCC3)c2F)CC4)CCN1C`
Reply: 1 to 10 nM

Ask: Looking for the measured IC50 of `COC[C@H]1CN(c2cc(C)c3c4c(c(=O)oc3c2C)CN(C(=O)c2cc(F)c(C(=O)NS(=O)(=O)N3CCCC3)cc2N(C)C)CC4)CCN1C` , can you help?
Reply: 10 to 100 nM

---

IC50 values, listed per item
# TARGET ENTITY: MTHFD1 recombinant human enzyme (Homo sapiens)
# METHOD DESCRIPTION: MTHFD1 inhibition assay (NAD(P)H-Glo luminescence)
# EXPERIMENTAL CONTEXT: MTHFD1 IC50, recombinant human enzyme 200 nM, NADP, band

Previously resolved entries follow.
COC[C@H]1CN(c2cc(C)c3c4c(c(=O)oc3c2C)CN(C(=O)c2cc(OC3CCC3)c(C(=O)NS(=O)(=O)C3(C)CC3)c(C(F)(F)F)c2)CC4)CCN1C [Example 130]: 1000 to 5000 nM
CCOc1c(C(=O)NS(=O)(=O)N(C)C)ccc(C(=O)N2CCc3c(c(=O)oc4c(C)c(N5CCN(C)[C@@H](COC)C5)cc(C)c34)C2)c1F [Example 146]: 10 to 100 nM

Moving on to another compound below.
Ask: Which IC50 is reported for this compound? COC[C@H]1CN(c2cc(C)c3c4c(c(=O)oc3c2C)CN(C(=O)c2cc(OC3CCC3)c(C(=O)NS(=O)(=O)N3CCCC3)c(C(F)(F)F)c2)CC4)CCN1C [Example 132]
Reply: 100 to 1000 nM

---

# TARGET ENTITY: MTHFD2 recombinant human enzyme (Homo sapiens, UniProt P13995)
# Sequence (P13995 36-350): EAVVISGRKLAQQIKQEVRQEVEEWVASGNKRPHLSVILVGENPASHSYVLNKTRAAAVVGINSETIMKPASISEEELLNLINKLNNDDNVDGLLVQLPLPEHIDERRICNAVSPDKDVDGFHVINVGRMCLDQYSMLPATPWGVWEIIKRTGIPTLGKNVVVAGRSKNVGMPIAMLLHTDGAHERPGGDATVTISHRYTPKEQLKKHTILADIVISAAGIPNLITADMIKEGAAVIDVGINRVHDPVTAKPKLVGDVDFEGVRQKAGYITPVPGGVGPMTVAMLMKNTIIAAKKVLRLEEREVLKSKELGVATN
# METHOD DESCRIPTION: MTHFD2 inhibition assay (NAD(P)H-Glo luminescence)
# EXPERIMENTAL CONTEXT: selectivity of MTHFD2 inhibition over MTHFD1, band
PROPERTY LABEL: MTHFD1/MTHFD2 IC50 ratio

Worked cases, MTHFD1/MTHFD2 IC50 ratio given:
[2H]C([2H])([2H])Oc1cc(C(=O)N2CCc3c(c(=O)oc4c(C)c(N5CCN(C)[C@@H](COC)C5)cc(C)c34)C2)c(Cl)cc1C(=O)NS(=O)(=O)N1CCCC1: J (>30)
COC[C@H]1CN(c2cc(C)c3c4c(c(=O)oc3c2C)CN(C(=O)c2cc(N(C)C)c(C(=O)NS(=O)(=O)N3CCC(OC)CC3)cc2F)CC4)CCN1C: J (>30)
COC[C@H]1CN(c2ccc3c4c(c(=O)oc3c2C)CN(C(=O)c2cc(Cl)c(C(=O)NS(=O)(=O)C3(C)CC3)c(N3C5CCC3CC5)c2)CC4)CCN1C: H (>9.0 to 30)
COC[C@H]1CN(c2cc(C)c3c4c(c(=O)oc3c2C)CN(C(=O)c2ccc(C(=O)NS(=O)(=O)N3CCCC3)c(OCCC(F)(F)F)c2F)CC4)CCN1C: F (<3)

Ask: Would you kindly share the measured MTHFD1/MTHFD2 IC50 ratio for COC[C@H]1CN(c2cc(C)c3c4c(c(=O)oc3c2C)CN(C(=O)c2ccc(C(=O)NS(=O)(=O)N3CC5CCCCC5C3)cc2)CC4)CCN1C (some centres unmarked) ?
Reply: H (>9.0 to 30)

---

# TARGET ENTITY: MTHFD1 recombinant human enzyme (Homo sapiens)
# Sequence (P11586 2-291 limits assumed): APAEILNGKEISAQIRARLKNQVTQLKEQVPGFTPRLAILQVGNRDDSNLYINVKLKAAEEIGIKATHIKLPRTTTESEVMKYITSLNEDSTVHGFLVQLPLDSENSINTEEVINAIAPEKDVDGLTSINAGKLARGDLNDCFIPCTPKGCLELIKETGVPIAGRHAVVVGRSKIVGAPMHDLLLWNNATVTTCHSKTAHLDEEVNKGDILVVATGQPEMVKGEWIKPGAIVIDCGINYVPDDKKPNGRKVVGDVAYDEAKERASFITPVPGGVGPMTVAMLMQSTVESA
# METHOD DESCRIPTION: MTHFD1 inhibition assay (NAD(P)H-Glo luminescence)
# EXPERIMENTAL CONTEXT: MTHFD1 IC50, recombinant human enzyme 200 nM, NADP, band
pIC50: −log10 of the molar value.
# pIC50 annotations

Sample answers from the record:
CNc1cc(C(=O)N2CCc3c(c(=O)oc4c(C)c(N5CCN(C)[C@@H](COC)C5)cc(C)c34)C2)c(F)cc1C(=O)NS(=O)(=O)N1CCCC1: 5.30 to 6.00
COC[C@H]1CN(c2cc(C)c3c4c(c(=O)oc3c2C)CN(C(=O)c2cc(F)c(C(=O)NS(=O)(=O)N3CCCC3)cc2OC)CC4)CCN1C: 6.00 to 7.00
COC[C@H]1CN(c2cc(C)c3c4c(c(=O)oc3c2C)CN(C(=O)c2cc(OC3CCCC3)c(C(=O)NS(=O)(=O)N(C)C)c(N3CCCC3)c2)CC4)CCN1C: 6.00 to 7.00
COC[C@@H]1CN(c2ccc3c4c(c(=O)oc3c2C)CN(C(=O)c2ccc(C(=O)NS(=O)(=O)N3CCCC3)c(OC3CCC3)c2F)CC4)CCN1C: 6.00 to 7.00
COC[C@H]1CN(c2cc(C)c3c4c(c(=O)oc3c2C)CN(C(=O)c2cc(OC3CCCC3)c(C(=O)NS(=O)(=O)N(C)C)cc2F)CC4)CCN1C: 7.00 to 8.00

Ask: Returns the measured pIC50 for the input molecule. Input: `COC[C@H]1CN(c2ccc3c4c(c(=O)oc3c2Cl)CN(C(=O)c2ccc(C(=O)NS(=O)(=O)N(C)C)c(OC3CCCC3)c2F)CC4)CCN1C`
Reply: 8.00 to 9.00

Ask: Report pIC50 for `COC[C@H]1CN(c2cc(C)c3c4c(c(=O)oc3c2C)CN(C(=O)c2cc(OC3CCC3)cc(C(=O)NS(=O)(=O)N3CCCC3)c2)CC4)CCN1C` please.
Reply: < 5.30

Ask: Which pIC50 value is on record for `COC[C@H]1CN(c2cc(C)c3c4c(c(=O)oc3c2C)CN(C(=O)c2ccc(C(=O)NS(=O)(=O)N(C)C)c(OC)c2F)CC4)CCN1C` ?
Reply: 7.00 to 8.00

Ask: Look up pIC50: `[2H]C([2H])([2H])Oc1cc(C(=O)N2CCc3c(c(=O)oc4c(C)c(N5CCN(C)[C@@H](COC)C5)cc(Cl)c34)C2)c(F)cc1C(=O)NS(=O)(=O)N1C2CCC1CC2`
Reply: 5.30 to 6.00

Ask: Requested field: pIC50. Item: `COC[C@H]1CN(c2cc(C)c3c4c(c(=O)oc3c2C)CN(C(=O)c2cc(N(C)C)c(C(=O)NS(=O)(=O)N3CCCC3)cc2F)CC4)CCN1C`
Reply: 6.00 to 7.00

Ask: So what does the record say about pIC50 for `COC[C@H]1CN(c2cc(Cl)c3c4c(c(=O)oc3c2C)CN(C(=O)c2cc(N(C)C)c(C(=O)NS(=O)(=O)N3CCCCC35COC5)cc2F)CC4)CCN1C` ?
Reply: 5.30 to 6.00
